Measured values drawn from PubChem BioAssay (NCI) for this set.

# System: MDA-MB-231 breast
# PROCEDURE_TEXT: NCI-60 one-dose screen, 48 h (100 = growth as untreated, 0 = no growth, -100 = all killed)
# PARTICULARS: 10 µM unless noted
About 83,000 compounds went through this panel and 20% of them were active in at least one assay; those are over-represented in the sample as a whole.
EXPERIMENTAL_ENDPOINT: growth (%)

* CCCCCCCCCCCCCCCCC(=O)O | 105
* O=S(=O)(O)c1ccc2cc(O)ccc2c1 | 108
* O=C(N=C1C(=O)C2(CCCCC2)C2(N=C(c3ccccc3)OC2=O)C12CCCCC2)c1ccccc1 (centres undefined) | 74.4
* O=C(O)Cc1cc(=O)[nH]n(-c2ccccc2)c1=O | 101
* COc1cc(Cl)ccc1C | 85.9
* COCCNC(C)=O | 99.2
* CC1CC(O)CC(C)(C)C1.CC1CC(O)CC(C)(C)C1.CC1CC(O)CC(C)(C)C1.CC1CC(O)CC(C)(C)C1.[Ti] (centres undefined) | 96.2
* Cc1cccc(Cl)c1N | 114
* NCCSSC/C=C\CSSCCN | 100
* Cc1ccc([N+](=O)[O-])cc1Br | 104
* COC(=O)CCOc1ccccc1 | 110
* N#Cc1c[nH]n2ccnc12 | 111
* COc1ccc(CCNC(=S)NN)cc1OC | 114
* CC1NC(C)c2ccc3ccccc3c2O1 (centres undefined) | 110

====

Entries and their growth values follow.
# System: NCI-H522 lung
# PROCEDURE_TEXT: NCI-60 one-dose screen, 48 h (100 = growth as untreated, 0 = no growth, -100 = all killed)
# PARTICULARS: 10 µM unless noted
About 83,000 compounds went through this panel and 20% of them were active in at least one assay; those are over-represented in the sample as a whole. Active and inactive are the calls of the source. How the source made its calls: active means growth percent below 10; inactive means the rest.
EXPERIMENTAL_ENDPOINT: growth

- O=[N+]([O-])c1ccc(N2CCN=N2)cc1: 78.8% (inactive)
- CCN(CC)C(CC(=O)c1ccccc1)C(=O)c1ccccc1 (centres undefined): 71.7% (inactive)
- NCCCCCC(=O)O: 100% (inactive) [middle of 4 runs]
- N#Cc1c[nH]n2ccnc12: 87.8% (inactive)
- COc1ccc2nccc(Cl)c2c1: 90.7% (inactive)
- CCCCCCC(C)CC1=C(O)c2ccccc2C(=O)C1=O (centres undefined): 56.2% (inactive)
- O=C1Cc2ccccc2C(=O)N1: 77.2% (inactive)
- CCCC(=O)OCC(COC(=O)CCC)OC(=O)CCC: 99.1% (inactive)
- c1ccc2c[n+](Cc3ccc4ccccc4n3)ccc2c1: 84.9% (inactive)
- CCC/C(=N/NC(N)=O)c1ccco1: 76.3% (inactive)
- CC(NC(=O)CCl)c1ccccc1 (centres undefined): 98% (inactive)
- NCCSSC/C=C\CSSCCN: 88.1% (inactive)
- COC(=O)c1nc(N)nc(C(=O)OC)c1C(=O)c1ccc(F)cc1: 103% (inactive)
- C=CCN1C(=O)c2ccccc2C1=O: 86% (inactive)
- Cc1cc(-c2ccc(N=Nc3c(C)nn(-c4ccc(S(=O)(=O)O)cc4)c3O)c(C)c2)ccc1N=Nc1ccc(O)c(C(=O)O)c1: 87.9% (inactive)
- CC1NC(C)c2ccc3ccccc3c2O1 (centres undefined): 88.6% (inactive)
- O=C(O)Cc1cc(=O)[nH]n(-c2ccccc2)c1=O: 95.4% (inactive)
- CCCCOC1NC(=O)NC(=O)C1(F)C(=O)OCC (centres undefined): 80.1% (inactive)
- CC(O)CCNC(c1ccccc1)C(O)c1ccccc1 (centres undefined): 89.8% (inactive)
- Nc1c(Cl)cc2c(c1Br)C(=O)c1ccccc1C2=O: 91.7% (inactive)
- CCc1ccc(OC(=O)CCl)cc1: 102% (inactive)
- Clc1ccc2sc(-c3ccccc3)nc2c1: 82.5% (inactive)
- O=[N+]([O-])c1ccc(N/N=C/C2CCCCCC2)c([N+](=O)[O-])c1: 78.5% (inactive)
- O=C1c2ccccc2CN1c1ccccc1: 74.7% (inactive)
- CC(=O)Nc1ccc2oc(=O)ccc2c1: 93.3% (inactive)
- CCn1c2ccc(N(C)C)cc2c2cc(N(C)C)ccc21: 77.3% (inactive)
- CCOC(=O)c1csc(N)n1: 88.7% (inactive)
- O=C(c1ccc(Cl)cc1)C1C(c2ccccc2)C1[N+](=O)[O-] (centres undefined): 101% (inactive)
- COc1ccc(CCN=Cc2ccc(Cl)cc2)cc1OC: 94.8% (inactive)
- Cc1cccc(Cl)c1N: 105% (inactive)
- Cn1c(-c2ccccc2)cc(=O)cc1-c1ccccc1: 56.4% (inactive)
- Nc1ccc(Cl)c(S(=O)(=O)O)c1: 99.1% (inactive)
- Cc1ccc(NC(=S)N/C=C(\c2ccccc2)S(=O)Cc2ccccc2)c(C)c1 (centres undefined): 90.5% (inactive)
- CCc1ccccc1-n1[nH]c(C)c(C=N)c1=O: 102% (inactive)
- NNC(=O)Nc1ccccc1: 107% (inactive)
- CCOP(=O)(OCC)/C(C#N)=C/c1c(C)[nH]c2ccccc12: 87.1% (inactive)
- CCC(C)NC(=O)c1ccccc1C (centres undefined): 94.2% (inactive)
- COc1ccc(COC=O)cc1: 95.5% (inactive)
- CN1C2C=CC(=O)C1C1C(=O)N(c3ccccc3)C(=O)C12 (centres undefined): -8.8% (active)
- CC1=CC(=O)c2cccc(NC3=NCCO3)c21: 87.8% (inactive)
- S=c1nn[nH]n1C1CCCCC1: 117% (inactive)
- Cc1c(Cl)cc(Cl)c(N)c1Cl: 97.4% (inactive)
- Cc1c(Cl)c(C)c(Cc2c(C)c(Cl)c(C)c(Cl)c2O)c(O)c1Cl: 7.1% (active)
- O=C1C=CC(=O)N1Cc1ccco1: 67.8% (inactive)
